molecular target: α-glucosidase; experiment: α-glucosidase inhibition assay (PNPG substrate)
MEASURED ATTRIBUTE: pIC50
Numbers only, as −log10 of the molar value.

IN: Answer with the recorded pIC50 for the compound listed here: `C/C(=N\NC(=O)C1=C(O)c2ccccc2S(=O)(=O)N1)c1ccccc1`
OUT: 5.41

---

target: α-amylase; experiment: α-amylase inhibition assay (starch substrate, DNSA)
MEASURED ATTRIBUTE: IC50 (µM)
Answers are plain numbers, in µM.

IN: Recall the reported IC50 of `C/C(=N\NC(=O)C1=C(O)c2ccccc2S(=O)(=O)N1)c1ccccc1` when tested on α-amylase.
OUT: 8.89
